# TARGET DESC: Enzyme (kinases of Table 30) (Homo sapiens)
# ASSAY DETAILS: IC50 of Compound (nM) (ATP present at Km of enzyme), Table 30
# Type: biochemical
# TEST CONTEXT: Pim-3(h), ATP present at Km of enzyme; read-out: IC50 of Compound, Pim-3(h)
In this section, each of the compounds is paired with its reported pIC50.
# pIC50: negative log10 of molar concentration; output just the value

COMPOUND: O=C1NC(=O)/C(=C/c2ccnc(N3CCC(CNCc4ccccn4)CC3)n2)S1
pIC50: 7.34

# compound CN(c1nccc(/C=C2\SC(=O)NC2=O)n1)[C@H]1CCCNC1 ; its pIC50 = 8.52

# compound O=C1NC(=O)/C(=C/c2ccnc(N3CCc4[nH]c5ccccc5c4C3)n2)S1 ; its pIC50 = 6.00

# compound Nc1ccc2c(c1)CN(c1nccc(/C=C3\SC(=O)NC3=O)n1)CC2 ; its pIC50 = 6.38

# compound CN(CC1CCNCC1)c1nccc(/C=C2\SC(=O)NC2=O)n1 ; its pIC50 = 6.77

# compound O=C1NC(=O)/C(=C/c2ccnc(N3CCC(CNCC4CCN4)CC3)n2)S1 (stereo not drawn) ; its pIC50 = 7.19

# compound CC1CCCN(c2nccc(/C=C3\SC(=O)NC3=O)n2)C1 (stereo not drawn) ; its pIC50 = 6.36

# compound O=C1NC(=O)/C(=C/c2ccnc(N3CCC(CO)CC3)n2)S1 ; its pIC50 = 6.77

# compound O=C1NC(=O)/C(=C/c2ccnc(N3CCC(CNCc4cccnc4)CC3)n2)S1 ; its pIC50 = 7.74

* * *

# TARGET DESC: Enzyme (kinases of Table 30)
# ASSAY DETAILS: IC50 of Compound (nM) (ATP present at Km of enzyme), Table 30
# Type: biochemical
# TEST CONTEXT: Pim-1(h), ATP present at Km of enzyme; read-out: IC50 of Compound, Pim-1(h)
ASSAY READOUT: IC50 (nM)
The figure you give is taken to be in nM; do not add the unit.

# compound CN(C)CCOc1cc(/C=C2\SC(=O)NC2=O)nc(N2CCN(S(=O)(=O)c3ccccc3)CC2)n1 ; its IC50 = 95

* * *

# TARGET DESC: UniProt P68400
# Sequence (P68400 whole entry): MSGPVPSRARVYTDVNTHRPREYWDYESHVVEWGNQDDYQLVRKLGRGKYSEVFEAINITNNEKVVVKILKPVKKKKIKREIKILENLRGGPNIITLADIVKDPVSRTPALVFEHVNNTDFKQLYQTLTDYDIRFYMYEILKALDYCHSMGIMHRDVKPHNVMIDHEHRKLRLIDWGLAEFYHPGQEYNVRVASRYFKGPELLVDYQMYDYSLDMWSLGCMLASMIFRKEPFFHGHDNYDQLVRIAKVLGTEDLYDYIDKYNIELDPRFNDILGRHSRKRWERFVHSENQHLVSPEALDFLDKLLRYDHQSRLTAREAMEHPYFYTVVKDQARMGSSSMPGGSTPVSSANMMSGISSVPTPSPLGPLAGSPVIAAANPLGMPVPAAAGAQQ
Simple rule here: IC50 less than 200 nM is criterion met, otherwise criterion not met.

Solved entries:
COMPOUND: O=C1NC(=O)/C(=C/c2ccnc(N3CCC(CNCc4ccncc4)CC3)n2)S1
GROUP: criterion not met

COMPOUND: O=C1NC(=O)/C(=C/c2ccnc(NCC3CCNCC3)n2)S1
GROUP: criterion met

COMPOUND: O=C1NC(=O)/C(=C/c2ccnc(N3CCC(CCO)CC3)n2)S1
GROUP: criterion not met

Task: Confirm or reject: IC50 of O=C1NC(=O)/C(=C/c2ccnc(N3CCC(CNCc4cccnc4)CC3)n2)S1 lies strictly below 200 nM
Result: criterion not met

Task: Confirm or reject: IC50 of CN1CCC(CNc2nccc(/C=C3\SC(=O)NC3=O)n2)CC1 lies strictly below 200 nM
Result: criterion met

Task: Confirm or reject: IC50 of CN(c1nccc(/C=C2\SC(=O)NC2=O)n1)[C@H]1CCCNC1 lies strictly below 200 nM
Result: criterion met

Task: Confirm or reject: IC50 of Nc1cccc2c1CCN(c1nccc(/C=C3\SC(=O)NC3=O)n1)C2 lies strictly below 200 nM
Result: criterion not met

Task: Confirm or reject: IC50 of O=C1NC(=O)/C(=C/c2ccnc(N3CCC(CNCC4CCN4)CC3)n2)S1 (centres unmarked) lies strictly below 200 nM
Result: criterion met
